Target: T1, hPD-L1-His (human, UniProt Q9NZQ7 19-238)
T1 construct: Bought protein; also called hPD-L1-His (manufactured by Edison); not shown: His tag
T1 sequence (Q9NZQ7 19-238 limits assumed): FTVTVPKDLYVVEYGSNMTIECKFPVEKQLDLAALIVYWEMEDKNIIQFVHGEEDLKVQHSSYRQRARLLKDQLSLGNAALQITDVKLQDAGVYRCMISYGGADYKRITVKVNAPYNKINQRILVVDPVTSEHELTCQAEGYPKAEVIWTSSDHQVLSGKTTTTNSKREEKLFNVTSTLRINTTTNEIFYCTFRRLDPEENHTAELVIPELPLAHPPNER
Assay: SPR (Biacore T200), antibody on Protein A chip, hPD-L1-His injected, 1:1 fit
Reported values of kon for individual entries
# value in M⁻¹ s⁻¹; strip the unit string

binder="7E4-H2K3-IgG1 (antibody, V domains shown) VH: QVQLVQSGAEVKKPGASVKVSCKASGFKFTDYAIHWVRQAPGKSLEWMGVISIYYGEASYNQKFKDRVTLTVDTSASTAYMELSSLRSEDTAVYYCAREDYYGSSSYFDYWGQGTLVTVSS VL: ENVLTQSPSFLSASVGDRVTMTCSASSSVSSSYLHWYQQKSGASPKPLIHRTSNLASGVPSRFSGSGSGTEYTLTISSVQPEDFATYYCQQWSGYPYTFGGGTKLEIK" numeric_result=128000

Okay, now this binder:
Asked: Need kon of 6A11-H3K3-IgG1 (antibody, V domains shown) VH: EVQLVESGGGLVQPGGSRRLSCAASGFTFSSFGMHWVRQAPGKGLEWVAYISSGSNTIYYADTVKGRFTISRDNAKNSLYLQMNSLRAEDTAVYYCTRNGYDGWYAMDYWGQGTTVTVSS VL: EIVLTQSPATLSASPGERATLSCSASSSVSYIHWFQQKPGQSPRRWIYDTSKLASGIPARFSGSGSGTDYTLTISSMEPEDFATYYCQQWSTNPFTFGQGTKLEIKR , thanks.
Given back: 265000

Where these numbers come from: patent US20220073621A1
